test: Half life in mouse liver microsomes; assay type: ADME, Microsome
Readout name: half-life (min)
// units = min; emit number, no label

Query string: Requested read-out: half-life. Entry: COc1cc(OCc2cccc(OCc3ccccc3)c2)c2cc(-c3cn4nc(OC)sc4n3)oc2c1
Result string: 120

---

molecular target: Nuclear receptor subfamily 1 group I member 2 (Homo sapiens, UniProt O75469); assay: Activation of human PXR
Sequence (O75469 whole entry): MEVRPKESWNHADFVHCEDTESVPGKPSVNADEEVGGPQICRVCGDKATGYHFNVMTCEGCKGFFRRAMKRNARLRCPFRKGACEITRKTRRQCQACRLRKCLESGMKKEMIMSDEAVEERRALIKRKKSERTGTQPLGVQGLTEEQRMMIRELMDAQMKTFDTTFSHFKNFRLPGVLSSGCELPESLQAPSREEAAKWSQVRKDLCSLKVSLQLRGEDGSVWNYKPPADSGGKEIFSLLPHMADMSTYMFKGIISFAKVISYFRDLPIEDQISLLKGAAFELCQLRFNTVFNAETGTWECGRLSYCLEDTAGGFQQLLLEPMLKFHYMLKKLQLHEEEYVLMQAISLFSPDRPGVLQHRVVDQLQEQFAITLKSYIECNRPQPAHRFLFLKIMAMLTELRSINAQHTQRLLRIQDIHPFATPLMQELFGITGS
pEC50: −log10 of the molar value.
Readout name: pEC50

Query string: Recorded pEC50 for COc1cc(OCc2cccc(OCc3ccccc3)c2)c2cc(-c3cn4nc(OC)sc4n3)oc2c1 with Nuclear receptor subfamily 1 group I member 2 (Homo sapiens, UniProt O75469), please?
Result string: < 4.30

---

Listed next: entries and their corresponding remaining at 10 min.
assay: Stability in rat liver microsomes assessed as parent compound remaining measured after 10 mins; format: ADME, Microsome; conditions: read-out: Stability
Kindly provide the numeric value in % only, without the unit symbol.

Consider the worked cases shown below.
CSc1nn2cc(-c3cc4ccccc4o3)nc2s1: 4
COc1cc(OCc2cccc(Cl)c2)c2cc(-c3cn4nc(OC)sc4n3)oc2c1: 79
COc1cc(OCCc2ccccc2)c2cc(-c3cn4nc(OC)sc4n3)oc2c1: 43
COc1ccc2cc(-c3cn4nc(OC)sc4n3)oc2c1: 55

Query string: // returns reported remaining at 10 min for input COc1cc(OCc2ccccc2C)c2cc(-c3cn4nc(OC)sc4n3)oc2c1
Result string: 46

Query string: Subsequent entry: COc1nn2cc(-c3cc4ccc(OC)c(OC)c4o3)nc2s1
Result string: 3

Query string: Then this compound: COc1cc(OCc2cccc(CCc3ccccc3)c2)c2cc(-c3cn4nc(OC)sc4n3)oc2c1
Result string: 68

Query string: Ok, now COc1cc(OCc2ccccc2OCc2ccccc2)c2cc(-c3cn4nc(OC)sc4n3)oc2c1
Result string: 22

---

experiment: Protein binding in rat plasma; type: ADME, cell-free; conditions: read-out: PPB (converted)
Readout name: fraction unbound
The response must contain the number and no unit.

Query string: Name the reported fraction unbound value associated with the compound COc1cc(OCc2cccc(OCc3ccccc3)c2)c2cc(-c3cn4nc(OC)sc4n3)oc2c1
Result string: 0.002

---

experiment: Protein binding in monkey plasma; format: ADME, cell-free, Macaca mulatta; conditions: rhesus monkey, read-out: PPB
Readout name: fraction unbound

Query string: Using the record for COc1cc(OCc2cccc(OCc3ccccc3)c2)c2cc(-c3cn4nc(OC)sc4n3)oc2c1 , report its fraction unbound.
Result string: < 0.002

---

experiment: Stability in rat liver microsomes assessed as parent compound remaining measured after 10 mins; type: ADME, Microsome; settings: read-out: Stability
Labelling: remaining at 10 min reported below 40% becomes yes (1); at or above becomes no (0).

COc1cc(OCCOc2ccccc2)c2cc(-c3cn4nc(OC)sc4n3)oc2c1: yes (1)
CCOc1nn2cc(-c3cc4ccccc4o3)nc2s1: yes (1)
COc1cc(OCc2ccccc2Cl)c2cc(-c3cn4nc(OC)sc4n3)oc2c1: no (0)
Cc1nn2cc(-c3cc4ccccc4o3)nc2s1: yes (1)
COc1nn2cc(-c3cc4c(OC)cccc4o3)nc2s1: no (0)

Turning now to a further record.
Query string: Report whether reported remaining at 10 min is lower than 40% (strictly) for COc1ccc(COc2cc(OC)cc3oc(-c4cn5nc(OC)sc5n4)cc23)cc1
Result string: no (0)
